Parameter IC50: see the listing below.
- target desc: Rat recombinant PDE10A (rPDE10A2) (Rattus norvegicus, UniProt Q9QYJ6)
- Construct: made in house; host or cells: Sf9 insect cells (baculovirus)
- assay: In vitro assay PDE10A (SPA, 3H-cAMP)
- Format: biochemical
- measurement setup: read-out: PIC50 PDE10 (converted)

molecule	relation qualifier	IC50 / nM
CCCCOc1cncc(-c2nnc3c(C)nc4ccc(CN5CCCC5)cc4n23)c1	>	10000
Cc1nc2ccc(C(=O)NCc3cc(F)ccn3)cc2n2c(-c3ccccc3Cl)nnc12	=	8.13
CCCOc1ccc(Cl)c(-c2nnc3c(C)nc4ccc(OCCc5cccnc5)cc4n23)c1	=	513
Cc1nc2ccc(C(=O)NCc3cccnc3)cc2n2c(-c3ccccc3)nnc12	=	44.7
CCNC(=O)c1ccc2c(c1)nc(C)c1nnc(-c3cccnc3C)n12	=	2820
Cc1nc2ccc(CN3CCC(F)CC3)cc2n2c(-c3cc(OC(C)C)ccc3Cl)nnc12	=	1100
C=Cc1ccc2nc(C)c3nnc(-c4ccccc4Cl)n3c2c1	=	37.2
Cc1ccncc1-c1nnc2c(C)nc3ccc(C(=O)C4CC4)cc3n12	=	525
CCNC(=O)c1ccc2nc(C)c3nnc(-c4cncc(OC)c4)n3c2c1	=	741
Cc1nc2ccc(Br)cc2n2c(-c3cncc(OCC4CC4)c3)nnc12	=	3090
Cc1nc2ccc(CN3CCC(O)CC3)cc2n2c(-c3cc(OC(C)C)ccc3Cl)nnc12	=	1260
Cc1nc2ccc(CN3CCC(O)C3)cc2n2c(-c3ccccc3Cl)nnc12 (centres unmarked)	=	18.2
Cc1nc2ccc(CN3CCCC(O)C3)cc2n2c(-c3ccccc3Cl)nnc12 (centres unmarked)	=	19.5
Cc1nc2ccc(CN3CCOCC3)cc2n2c(-c3cncc(OCCCF)c3)nnc12	=	8710
CCCOc1ccc(Cl)c(-c2nnc3c(C)nc4ccc(N5CCN(C)CC5)cc4n23)c1	=	912
COc1ccc(Cl)c(-c2nnc3c(C)nc4ccc(C(=O)NCc5ccccn5)cc4n23)c1	=	43.7
COCCc1cncc(-c2nnc3c(C)nc4ccc(CN5CCOCC5)cc4n23)c1	=	5890

----------
- target desc: Rat recombinant PDE10A (rPDE10A2) (Rattus norvegicus, UniProt Q9QYJ6)
- Construct: made in house; host or cells: Sf9 insect cells (baculovirus)
- Sequence (Q9QYJ6 1-794): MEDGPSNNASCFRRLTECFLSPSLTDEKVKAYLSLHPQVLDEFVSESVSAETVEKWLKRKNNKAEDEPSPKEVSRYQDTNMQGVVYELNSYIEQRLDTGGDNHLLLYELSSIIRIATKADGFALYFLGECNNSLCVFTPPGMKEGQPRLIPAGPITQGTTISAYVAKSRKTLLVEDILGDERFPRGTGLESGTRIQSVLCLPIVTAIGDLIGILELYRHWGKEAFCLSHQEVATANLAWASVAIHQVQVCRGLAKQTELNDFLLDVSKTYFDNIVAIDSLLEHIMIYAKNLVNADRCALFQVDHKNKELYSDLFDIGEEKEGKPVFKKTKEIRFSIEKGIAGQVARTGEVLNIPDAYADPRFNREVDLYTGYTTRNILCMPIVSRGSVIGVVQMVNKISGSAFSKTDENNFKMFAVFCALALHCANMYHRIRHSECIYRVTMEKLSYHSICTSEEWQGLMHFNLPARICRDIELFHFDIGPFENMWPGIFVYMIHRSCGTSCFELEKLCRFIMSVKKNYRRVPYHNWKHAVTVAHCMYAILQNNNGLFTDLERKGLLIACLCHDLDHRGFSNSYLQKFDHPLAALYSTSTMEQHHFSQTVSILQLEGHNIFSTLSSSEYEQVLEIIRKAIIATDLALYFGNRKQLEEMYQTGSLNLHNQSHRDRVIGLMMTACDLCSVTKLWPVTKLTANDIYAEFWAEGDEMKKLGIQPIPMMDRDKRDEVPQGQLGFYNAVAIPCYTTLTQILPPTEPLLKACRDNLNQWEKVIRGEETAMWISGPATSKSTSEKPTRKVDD
- assay: In vitro assay PDE10A (SPA, 3H-cAMP)
- Format: biochemical
- measurement setup: read-out: PIC50 PDE10 (converted)
Here, each record is paired with measured IC50 data.
quantity name: IC50 (nM)

compound	quantity name	numeric result
CCOc1ccc(Cl)c(-c2nnc3c(C)nc4ccc(CN5CCC(O)CC5)cc4n23)c1 [Compound B-128]	IC50	229
Cc1nc2ccc(C(=O)NCCN3CCCC3)cc2n2c(-c3ccccc3Cl)nnc12 [Compound B-48]	IC50	61.7
Cc1nc2ccc(CN3CCOC(CF)C3)cc2n2c(-c3ccccc3Cl)nnc12 (centres unmarked) [Compound B-59]	IC50	23.4
Cc1nc2ccc(OCCN3CCOCC3)cc2n2c(-c3ccccc3Cl)nnc12 [Compound B-113]	IC50	33.1
Cc1nc2ccc(CN(C)C)cc2n2c(-c3ccccc3Cl)nnc12 [Compound B-107]	IC50	107
CCCCOc1ccc(Cl)c(-c2nnc3c(C)nc4ccc(OCCc5cccnc5)cc4n23)c1 [Compound B-130]	IC50	977
Cc1nc2ccc(C(=O)NCc3ccccn3)cc2n2c(-c3cc(Cl)ccc3Cl)nnc12 [Compound B-11]	IC50	33.9
CCCOc1ccc(Cl)c(-c2nnc3c(C)nc4ccc(CN5CCC(O)CC5)cc4n23)c1 [Compound B-129]	IC50	891
CCN(CC)CCNC(=O)c1ccc2nc(C)c3nnc(-c4ccccc4Cl)n3c2c1 [Compound B-41]	IC50	44.7
COc1ccc(Cl)c(-c2nnc3c(C)nc4ccc(Br)cc4n23)c1 [Compound B-69]	IC50	77.6
Cc1nc2ccc(Br)cc2n2c(-c3cc(OC(C)C)ccc3Cl)nnc12 [Compound B-100]	IC50	1230
Cc1nc2ccc(C(O)C(F)(F)F)cc2n2c(-c3ccccc3Cl)nnc12 (centres unmarked) [Compound B-21]	IC50	41.7
CCOc1ccc(Cl)c(-c2nnc3c(C)nc4ccc(Br)cc4n23)c1 [Compound B-85]	IC50	123
COc1ccc(Cl)c(-c2nnc3c(C)nc4ccc(CN5CCC(F)CC5)cc4n23)c1 [Compound B-97]	IC50	77.6
CCNC(=O)c1ccc2nc(C)c3nnc(-c4ccccn4)n3c2c1 [Compound B-181]	IC50	5500
CCC(=O)Nc1ccc2nc(C)c3nnc(-c4ccccc4Cl)n3c2c1 [Compound B-28]	IC50	13.2
Cc1nc2ccc(CN3CCCC(CO)C3)cc2n2c(-c3ccccc3Cl)nnc12 (centres unmarked) [Compound B-110]	IC50	44.7

Ref: patent US10604523B2
